# measurementDescription: in vitro
# experimentalParameters: PAMPA
quantity: Cross BBB potential

molecule	Cross BBB potential
COc1ccc(-c2cc(=O)c3c(O)cc(OC)cc3o2)cc1	+++
CC(=O)OC(C)(C)[C@@H]1CC[C@@]2(C)CO[C@]3(C)C=CO[C@]23C1	++
CC1(C)C[C@@H]2C3=CC[C@@H]4[C@@]5(C)CC[C@H](O)[C@@](C)(C=O)C5CC[C@@]4(C)[C@]3(C)CC[C@@]2(C(=O)O)C[C@@H]1O (stereo partly drawn)	++
COc1c(O[C@@H]2O[C@H](CO)[C@@H](O)[C@H](O)[C@H]2O)cc2oc(-c3ccc(O)cc3)cc(=O)c2c1O	+++
O=C(O)C[C@H]1CCC(=O)[C@@H]1C/C=C\CCO [12- Hydroxyjasmonic acid]	+++

INPUT: Given COC(=O)[C@]12CCCC(C)(C)[C@@H]1CCc1cc(C(C)C)c(O)c(O)c12 [Methyl carnosate] , respond with its Cross BBB potential.
OUTPUT: ++

INPUT: Given O.Oc1cc(O)c2c(c1)O[C@H](c1ccc(O)c(O)c1)[C@@H](O)C2 , respond with its Cross BBB potential.
OUTPUT: -

INPUT: Given CC(C)=CCc1cc(/C=C/C(=O)O)cc(CC=C(C)C)c1O [Artepillin C] , respond with its Cross BBB potential.
OUTPUT: +++

INPUT: Given O=c1c(O[C@@H]2O[C@H](CO)[C@@H](O)[C@H](O)[C@H]2O)c(-c2ccc(O)c(O)c2)oc2cc(O)cc(O)c12 , respond with its Cross BBB potential.
OUTPUT: -

INPUT: Given C[C@H]1[C@H](C)CC[C@]2(C(=O)O)CC[C@]3(C)C(=CC[C@@H]4[C@@]5(C)C[C@@H](O)[C@H](O)[C@@](C)(CO)[C@@H]5CC[C@]43C)[C@H]12 , respond with its Cross BBB potential.
OUTPUT: +++

INPUT: Given Oc1cccc(O)c1O , respond with its Cross BBB potential.
OUTPUT: -

INPUT: Given O=c1c(O)c(-c2cc(O)c(O)c(O)c2)oc2cc(O)cc(O)c12 , respond with its Cross BBB potential.
OUTPUT: -

INPUT: Given C[C@@H]1O[C@@H](OC[C@H]2O[C@@H](Oc3c(-c4ccc(O)c(O)c4)oc4cc(O)cc(O)c4c3=O)[C@H](O)[C@@H](O)[C@@H]2O)[C@H](O)[C@H](O)[C@H]1O , respond with its Cross BBB potential.
OUTPUT: -

INPUT: Given CC(C)c1cc2c(c(O)c1O)[C@@]13CCCC(C)(C)[C@@H]1[C@H](OC3=O)C2=O , respond with its Cross BBB potential.
OUTPUT: +++

INPUT: Given C=C(C)[C@@H]1CC[C@]2(C(=O)O)CC[C@]3(C)[C@H](CC[C@@H]4[C@@]5(C)CC[C@H](O)C(C)(C)[C@@H]5CC[C@]43C)[C@@H]12 , respond with its Cross BBB potential.
OUTPUT: +

INPUT: Given COc1cc2oc(-c3ccc(O)cc3)cc(=O)c2c(O)c1OC , respond with its Cross BBB potential.
OUTPUT: +++

The origin of these recorded values is paper PMC9243654.
